molecular target: alanyl aminopeptidases (APN) (Homo sapiens, UniProt P15144); experiment: Inhibition of alanyl aminopeptidase enzymatic activity, fluorogenic substrate (Ala)2-rhodamine 110; type: biochemical; details: Table 5, unstarred values; read-out: IC50APN
Sequence (P15144 whole entry, species assumed): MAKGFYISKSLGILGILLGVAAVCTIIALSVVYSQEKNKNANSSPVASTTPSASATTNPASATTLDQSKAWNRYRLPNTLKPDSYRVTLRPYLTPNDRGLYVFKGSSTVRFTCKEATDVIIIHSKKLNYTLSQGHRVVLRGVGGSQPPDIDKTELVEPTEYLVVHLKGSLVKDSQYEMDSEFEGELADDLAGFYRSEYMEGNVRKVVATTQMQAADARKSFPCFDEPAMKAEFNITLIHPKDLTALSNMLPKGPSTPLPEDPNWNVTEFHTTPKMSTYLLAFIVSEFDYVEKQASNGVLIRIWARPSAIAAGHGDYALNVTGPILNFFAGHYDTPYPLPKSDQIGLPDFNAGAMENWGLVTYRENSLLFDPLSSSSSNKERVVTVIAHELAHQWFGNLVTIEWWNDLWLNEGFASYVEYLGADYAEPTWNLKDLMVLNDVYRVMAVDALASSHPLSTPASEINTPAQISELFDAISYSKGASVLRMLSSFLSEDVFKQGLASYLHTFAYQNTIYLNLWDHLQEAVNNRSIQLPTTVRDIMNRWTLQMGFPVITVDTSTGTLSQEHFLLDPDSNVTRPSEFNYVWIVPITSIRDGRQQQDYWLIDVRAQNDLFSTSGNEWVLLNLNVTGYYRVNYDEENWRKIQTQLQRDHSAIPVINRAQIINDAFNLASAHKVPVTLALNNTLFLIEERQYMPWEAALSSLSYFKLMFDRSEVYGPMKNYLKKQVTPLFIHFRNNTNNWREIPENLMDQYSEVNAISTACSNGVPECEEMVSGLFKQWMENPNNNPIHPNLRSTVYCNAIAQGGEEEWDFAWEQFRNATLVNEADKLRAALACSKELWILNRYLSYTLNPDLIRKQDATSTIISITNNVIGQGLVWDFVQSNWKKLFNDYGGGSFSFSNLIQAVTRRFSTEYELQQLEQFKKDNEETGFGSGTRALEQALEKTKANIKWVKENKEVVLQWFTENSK
metricName: IC50 (µM)

Guide cases for IC50, answers given:
compound	measValue
O=C(Nc1cccc(/N=C/c2cc(/N=N\c3ccccc3Cl)ccc2O)c1)c1ccco1	3.6
CCCOc1[nH]c(/N=C/c2ccccc2)c(C#N)c1C#N	20

[P] CC1(C)CC(CC/N=C/c2ccccc2)(Cc2ccccc2)CCO1 (centres unmarked)
[Q] O=C(Nc1cccc(/N=C/c2cc(Br)cc(Br)c2O)c1)c1ccco1
Lower IC50: P or Q ? Answer by quoting the chosen item's label.
Q
(Q: 8.2 µM, P: 93.6 µM)
